Where these numbers come from: patent US10865208B2

# Target System: recombinant human His-ATG7 enzyme (Homo sapiens (Human))
# Sequence (O95352 whole entry): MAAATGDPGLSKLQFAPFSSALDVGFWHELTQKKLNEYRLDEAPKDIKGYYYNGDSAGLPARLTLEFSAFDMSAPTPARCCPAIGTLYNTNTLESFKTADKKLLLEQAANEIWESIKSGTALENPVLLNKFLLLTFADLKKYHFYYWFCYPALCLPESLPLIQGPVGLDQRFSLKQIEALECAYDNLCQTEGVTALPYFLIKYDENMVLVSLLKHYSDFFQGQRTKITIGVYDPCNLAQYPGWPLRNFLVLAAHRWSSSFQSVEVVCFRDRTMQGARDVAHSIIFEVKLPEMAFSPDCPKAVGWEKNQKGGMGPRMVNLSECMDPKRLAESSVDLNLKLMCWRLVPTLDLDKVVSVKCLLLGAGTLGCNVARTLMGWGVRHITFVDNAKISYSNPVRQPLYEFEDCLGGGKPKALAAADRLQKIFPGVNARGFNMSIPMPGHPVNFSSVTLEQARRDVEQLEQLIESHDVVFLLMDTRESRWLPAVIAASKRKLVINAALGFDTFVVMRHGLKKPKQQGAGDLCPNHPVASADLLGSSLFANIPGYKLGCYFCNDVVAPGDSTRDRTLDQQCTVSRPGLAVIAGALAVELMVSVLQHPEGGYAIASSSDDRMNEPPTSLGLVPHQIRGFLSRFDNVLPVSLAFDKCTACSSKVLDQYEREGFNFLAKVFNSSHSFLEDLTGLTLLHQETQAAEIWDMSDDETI
# Measurement Description: ATG7 Enzyme Assay (HTRF/FRET, ATG3-GST and Flag-Gabarap)
# Format: biochemical
# Test Conditions: Concentration 0.111 μM; read-out: Percent Inhibition
Quantity Kind: inhibition at 0.111 µM (%)

{"columns": ["Compound", "Recorded Number"],
 "data": [
  ["Nc1ncnc2c1c(Sc1ccc(Cl)cc1)nn2[C@@H]1O[C@H](COS(N)(=O)=O)[C@@H](O)[C@@H]1F", 67]
]}

I. CCC(C)Sc1nn([C@@H]2O[C@H](COS(N)(=O)=O)[C@@H](O)[C@@H]2F)c2ncnc(N)c12 (mixture of isomers) [Compound I-136]
II. Nc1ncnc2c1c(C(F)(F)F)nn2[C@H]1C[C@H](O)[C@@H](COS(N)(=O)=O)O1
III. COc1nn([C@H]2C[C@H](O)[C@H](COS(N)(=O)=O)O2)c2ncnc(N)c12
IV. Cc1ccccc1Sc1nn([C@H]2C[C@H](O)[C@@H](COS(N)(=O)=O)O2)c2ncnc(N)c12
Arrange these compounds by their inhibition at 0.111 µM, starting with the largest number. Answer with the labels in sequence, matching the requested order.
I, II, IV, III
(I: 69%, II: 48%, IV: 26%, III: 10%)

P. Nc1ncnc2c1c(SCc1cccnc1)nn2[C@@H]1O[C@H](COS(N)(=O)=O)[C@@H](O)[C@@H]1F
Q. Nc1ncnc2c1c(Sc1ccc(F)cc1)nn2[C@H]1C[C@H](O)[C@H](COS(N)(=O)=O)O1
R. CC(Sc1nn([C@@H]2O[C@H](COS(N)(=O)=O)[C@@H](O)[C@@H]2F)c2ncnc(N)c12)C(F)(F)F (mixture of isomers)
Arrange the 3 compounds by rising inhibition at 0.111 µM, starting with the smallest. Answer with the labels in sequence, matching the requested order.
R, Q, P
(R: 13%, Q: 35%, P: 65%)

A. CSc1nn([C@H]2C[C@H](O)[C@H](COS(N)(=O)=O)O2)c2ncnc(N)c12
B. Nc1ncnc2c1c(Sc1cc(C(F)(F)F)ccn1)nn2[C@@H]1O[C@H](COS(N)(=O)=O)[C@@H](O)[C@@H]1F
Min inhibition at 0.111 µM? A | B API: response body contains the label of the selected item.
A
(A: 48%, B: 83%)
